Data origin: patent US11479539B2

biological target: Keap1 (Homo sapiens (Human)); experiment: HEK293 ARE luciferase assay; conditions: HEK-293 ARE firefly luciferase transiently transfected cells; 18 h incubation; mean of 1 to 20 individual measurements
Sequence (Q14145 whole entry): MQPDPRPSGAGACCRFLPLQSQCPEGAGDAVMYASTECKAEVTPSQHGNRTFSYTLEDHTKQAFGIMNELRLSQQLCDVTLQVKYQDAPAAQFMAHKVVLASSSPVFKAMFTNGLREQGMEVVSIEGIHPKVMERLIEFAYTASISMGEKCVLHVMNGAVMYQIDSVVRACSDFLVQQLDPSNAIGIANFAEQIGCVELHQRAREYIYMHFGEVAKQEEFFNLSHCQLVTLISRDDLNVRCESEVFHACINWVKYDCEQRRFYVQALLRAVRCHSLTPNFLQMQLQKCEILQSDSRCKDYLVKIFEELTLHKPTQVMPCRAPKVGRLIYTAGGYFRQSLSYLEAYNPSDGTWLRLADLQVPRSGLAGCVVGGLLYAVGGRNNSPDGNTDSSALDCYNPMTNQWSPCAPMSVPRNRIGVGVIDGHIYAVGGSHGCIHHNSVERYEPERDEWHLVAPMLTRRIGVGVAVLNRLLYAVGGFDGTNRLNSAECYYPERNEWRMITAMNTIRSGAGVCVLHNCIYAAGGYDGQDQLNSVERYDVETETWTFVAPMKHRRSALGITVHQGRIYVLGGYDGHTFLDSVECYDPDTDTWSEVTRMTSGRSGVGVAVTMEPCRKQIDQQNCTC
pEC50: −log10 of the molar value.
# binarize pEC50: threshold 7 inclusive, high side yes, low side no

See these solved cases before continuing.
{"compound": "CO[C@]1(c2ncc(F)cc2-c2ccns2)C=C(C#N)C(=O)C(C)(C)C1", "label_value": "yes"}
{"compound": "COC1(c2ncccc2-c2cnn(C)c2)C=C(C#N)C(=O)C(C)(C)C1 (single isomer, unassigned)", "label_value": "yes"}

Q: Is the recorded value of pEC50 equal to or greater than 7 for this compound? COC1(c2nc(C(F)(F)F)cs2)C=C(C#N)C(=O)C(C)(C)C1 (single isomer, unassigned) [Compound 33]
Ans: no
